Tested on: U138
Assay: Matrigel outgrowth assay/branching assay
Format: cell-based
Conditions: IC100, U138; Table Vb
READOUT: Total branching inhibition in Matrigel U138

Record excerpt, results attached:
• COc1cc2c(Oc3ccc(NS(=O)(=O)c4cc(F)ccc4F)cc3F)ccnc2cc1OCCCN1CCN(C)CC1 = ++ (IC100≦12.5 μM)
• COc1cc2c(Oc3ccc(NS(=O)(=O)c4cc(F)ccc4F)cc3F)ccnc2cc1OCCCN1CCCCC1 = ++ (IC100≦12.5 μM)
• COc1cc2c(Oc3ccc(NS(=O)(=O)c4ccccc4C(F)(F)F)cc3F)ccnc2cc1OCCCN1CCN(C)CC1 = ++ (IC100≦12.5 μM)
• COc1cc2c(Oc3ccc(NS(=O)(=O)c4cccc(Oc5ccccc5)c4)cc3F)ccnc2cc1OCCCN1CCN(C)CC1 = ++ (IC100≦12.5 μM)

Prompt: // fetch U138 Total branching inhibition in Matrigel U138 for COC(=O)c1sccc1S(=O)(=O)Nc1ccc(Oc2ccnc3cc(OCCCN4CCCC(C)C4)c(OC)cc23)c(F)c1 (centres unmarked)
Response: ++ (IC100≦12.5 μM)
